experimentalSystem: Cytochrome P450 1A2 (Homo sapiens) (UniProt P05177)
Sequence (P05177 whole entry, looked up): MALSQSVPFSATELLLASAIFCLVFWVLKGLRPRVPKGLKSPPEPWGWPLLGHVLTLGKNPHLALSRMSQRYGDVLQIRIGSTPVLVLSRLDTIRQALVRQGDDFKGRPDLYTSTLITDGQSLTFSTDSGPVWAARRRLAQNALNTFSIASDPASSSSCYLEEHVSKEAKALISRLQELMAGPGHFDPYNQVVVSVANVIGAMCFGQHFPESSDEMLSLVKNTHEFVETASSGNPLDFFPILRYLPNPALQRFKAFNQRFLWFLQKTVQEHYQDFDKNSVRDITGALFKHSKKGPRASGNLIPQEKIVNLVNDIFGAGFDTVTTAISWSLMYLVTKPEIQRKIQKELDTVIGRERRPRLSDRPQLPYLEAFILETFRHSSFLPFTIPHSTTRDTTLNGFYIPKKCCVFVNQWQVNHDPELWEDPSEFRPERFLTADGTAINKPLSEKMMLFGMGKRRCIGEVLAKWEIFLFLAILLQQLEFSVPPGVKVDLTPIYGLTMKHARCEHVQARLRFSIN
protocolNotes: Cytochrome P450 Family 1 Subfamily A Member 2 (CYP1A2) small molecule antagonists: luciferase reporter qHTS assay (AID 1671199); also: nearly all actives have a fitted effect of over 50% in size; also: potency is read from the fitted curve at half-maximal effect
measurementSetup: P450-Glo CYP1A2 enzyme, luciferin luminescence, 1 h; series mostly up to 53 µM
Inconclusive results are not listed. Active and inactive are the calls of the source. Calls follow the shape of the dose curve; as a rule, active = well fitted inhibition curve with a large enough effect in the repeat runs; inconclusive = weak or mixed curves; inactive = no such curve, though single readings can be large or run the other way.

[
  {
    "smilesCode": "N#C[C@@H]1C[C@@H]2C[C@@H]2N1C(=O)[C@@H](N)C12CC3CC(CC(O)(C3)C1)C2",
    "Potency": "inactive"
  },
  {
    "smilesCode": "O=C(CCC1CCN(Cc2ccccc2)CC1)c1ccc2c(c1)NCCCC2",
    "Potency": "inactive"
  },
  {
    "smilesCode": "CCOC(=O)CC(=O)C(=O)OCC",
    "Potency": "31.7 µM (active)"
  },
  {
    "smilesCode": "NC(=O)Nc1ccc(Cl)cc1",
    "Potency": "31.6 µM (active)"
  },
  {
    "smilesCode": "CC(=O)[C@H]1CC[C@H]2[C@@H]3C=CC4=CC(=O)CC[C@@]4(C)[C@@H]3CC[C@]12C",
    "Potency": "inactive"
  },
  {
    "smilesCode": "COc1cc2ncnc(Nc3ccc(F)c(Cl)c3)c2cc1OCCCN1CCOCC1",
    "Potency": "inactive"
  }
]
